Target: PKD2 (Homo sapiens, UniProt Q9BZL6)
Sequence (Q9BZL6 1-878): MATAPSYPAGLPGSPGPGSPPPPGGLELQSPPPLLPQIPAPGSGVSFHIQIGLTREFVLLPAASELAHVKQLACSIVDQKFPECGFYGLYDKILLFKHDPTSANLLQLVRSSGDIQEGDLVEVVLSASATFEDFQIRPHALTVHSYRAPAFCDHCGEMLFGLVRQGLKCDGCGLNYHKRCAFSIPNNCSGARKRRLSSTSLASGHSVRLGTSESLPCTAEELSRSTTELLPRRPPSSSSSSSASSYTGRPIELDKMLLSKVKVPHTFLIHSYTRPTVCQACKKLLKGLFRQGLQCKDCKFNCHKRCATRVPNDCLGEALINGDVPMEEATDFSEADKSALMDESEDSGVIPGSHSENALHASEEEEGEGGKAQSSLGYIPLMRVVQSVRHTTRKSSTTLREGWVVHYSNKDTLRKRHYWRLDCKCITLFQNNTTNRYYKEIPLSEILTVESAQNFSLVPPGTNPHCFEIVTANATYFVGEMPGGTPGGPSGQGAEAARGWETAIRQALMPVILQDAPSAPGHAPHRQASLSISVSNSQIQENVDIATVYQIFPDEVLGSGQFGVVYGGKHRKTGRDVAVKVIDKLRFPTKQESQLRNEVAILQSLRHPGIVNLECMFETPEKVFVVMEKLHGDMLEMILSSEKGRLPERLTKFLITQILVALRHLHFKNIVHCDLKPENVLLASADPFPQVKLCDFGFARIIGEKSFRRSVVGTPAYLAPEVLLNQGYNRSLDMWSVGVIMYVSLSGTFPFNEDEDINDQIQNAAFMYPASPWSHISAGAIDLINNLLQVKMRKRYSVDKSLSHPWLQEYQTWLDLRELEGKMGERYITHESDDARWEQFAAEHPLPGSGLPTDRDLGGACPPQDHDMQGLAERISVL
Note to self: IC50 under 100 nM means 1 (yes), ties and anything higher get 0 (no).

O=C1NCCSc2c1sc1ccc(O)cc21 = 1 (yes)
O=C1NCCSc2c1sc1ccc(O)c(I)c21 = 0 (no)
COc1ccc2sc3c(c2c1)SCCNC3=O = 0 (no)

Please look at the following compound next.
**Q:** Just wondering, is IC50 of COc1ccc2sc3c(c2c1)SCCCNC3=O below 100 nM?
**A:** 0 (no)

----------
Target: recombinant human PKD3 (Homo sapiens)
Sequence (O94806 whole entry): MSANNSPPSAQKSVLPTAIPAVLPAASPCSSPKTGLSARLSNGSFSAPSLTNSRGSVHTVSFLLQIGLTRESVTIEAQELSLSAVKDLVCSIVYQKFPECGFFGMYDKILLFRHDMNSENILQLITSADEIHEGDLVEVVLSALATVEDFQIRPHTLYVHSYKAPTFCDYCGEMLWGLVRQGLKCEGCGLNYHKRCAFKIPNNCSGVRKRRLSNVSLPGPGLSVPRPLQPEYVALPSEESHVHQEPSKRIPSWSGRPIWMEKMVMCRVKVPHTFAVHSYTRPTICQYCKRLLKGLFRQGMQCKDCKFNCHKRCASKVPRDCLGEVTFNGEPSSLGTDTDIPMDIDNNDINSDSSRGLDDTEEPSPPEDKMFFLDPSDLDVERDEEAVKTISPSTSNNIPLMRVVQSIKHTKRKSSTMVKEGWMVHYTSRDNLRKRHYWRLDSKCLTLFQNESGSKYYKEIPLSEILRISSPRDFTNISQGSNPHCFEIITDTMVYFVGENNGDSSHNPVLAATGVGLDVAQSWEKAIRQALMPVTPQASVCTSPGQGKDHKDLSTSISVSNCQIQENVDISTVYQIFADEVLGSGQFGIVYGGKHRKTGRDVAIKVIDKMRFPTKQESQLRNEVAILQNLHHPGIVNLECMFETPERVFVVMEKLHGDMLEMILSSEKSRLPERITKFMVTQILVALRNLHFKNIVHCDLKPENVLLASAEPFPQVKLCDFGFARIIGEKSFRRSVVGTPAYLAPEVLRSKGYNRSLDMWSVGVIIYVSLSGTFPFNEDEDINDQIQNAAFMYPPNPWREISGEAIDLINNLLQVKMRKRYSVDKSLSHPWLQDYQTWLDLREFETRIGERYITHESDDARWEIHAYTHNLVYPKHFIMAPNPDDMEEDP
Assay: In vitro radiometric PKD kinase assay
Conditions: radiometric kinase assay, mean ± S.E.M.
Protocol: In vitro radiometric kinase assays were conducted as previously described. Briefly, 1 μCi [γ-^32P] […] The filter papers were washed 3 times in 0.5% phosphoric acid, air-dried, and counted using a Beckman LS6500 multipurpose scintillation counter (Beckman). The in vitro inhibitory activities of the novel compounds toward PKD were determined using radiometric PKD kinase activity assays. […]
pIC50: −log10 of the molar value.
Lab note: compare pIC50 against 7. Equal or greater, write y. Smaller, write n.

COc1ccc2sc3c(c2c1)SCCCNC3=O = n

**Q:** Kindly determine if pIC50 recorded for O=C1NCCCSc2c1sc1ccc(O)cc21 is above or exactly 7.
**A:** y

**Q:** Kindly determine if pIC50 recorded for O=C1NCCSc2c1sc1ccc(O)cc21 is above or exactly 7.
**A:** y

----------
Biological target: PKD1 (Homo sapiens)
Assay: In vitro radiometric PKD kinase assay
Assay type: biochemical
Set-up: purchased Biomol International
Settings: radiometric kinase assay, mean ± S.E.M.
Measurement label: pIC50
Please treat pIC50 as minus the base-10 logarithm of the molar concentration.

O=C1NCCSc2c1sc1ccc(O)cc21 = 7.55

**Q:** So what pIC50 did O=C1NCCCc2c1oc1ccc(O)cc21 get with PKD1 (Homo sapiens)?
**A:** 6.74

**Q:** So what pIC50 did O=C1NCCCSc2c1sc1ccc(O)cc21 get with PKD1 (Homo sapiens)?
**A:** 6.95

----------
Test: MTT cytotoxicity assay
Conditions: human
Listed below: EC50 at 72 h values for each entry.
Numbers only here, please. The scale is µM.

Sample records with EC50 at 72 h:
O=C1NCCCSc2c1sc1ccc(O)cc21 = 78.3
O=C1NCCSc2c1sc1ccc(O)c(I)c21 = 31.9

Could you now consider this next molecule?
**Q:** What EC50 at 72 h value was documented for this molecule, COc1ccc2sc3c(c2c1)SCCCNC3=O ?
**A:** 33.8

----------
Target: PKD1 (Homo sapiens, UniProt Q15139)
Sequence (Q15139 1-912): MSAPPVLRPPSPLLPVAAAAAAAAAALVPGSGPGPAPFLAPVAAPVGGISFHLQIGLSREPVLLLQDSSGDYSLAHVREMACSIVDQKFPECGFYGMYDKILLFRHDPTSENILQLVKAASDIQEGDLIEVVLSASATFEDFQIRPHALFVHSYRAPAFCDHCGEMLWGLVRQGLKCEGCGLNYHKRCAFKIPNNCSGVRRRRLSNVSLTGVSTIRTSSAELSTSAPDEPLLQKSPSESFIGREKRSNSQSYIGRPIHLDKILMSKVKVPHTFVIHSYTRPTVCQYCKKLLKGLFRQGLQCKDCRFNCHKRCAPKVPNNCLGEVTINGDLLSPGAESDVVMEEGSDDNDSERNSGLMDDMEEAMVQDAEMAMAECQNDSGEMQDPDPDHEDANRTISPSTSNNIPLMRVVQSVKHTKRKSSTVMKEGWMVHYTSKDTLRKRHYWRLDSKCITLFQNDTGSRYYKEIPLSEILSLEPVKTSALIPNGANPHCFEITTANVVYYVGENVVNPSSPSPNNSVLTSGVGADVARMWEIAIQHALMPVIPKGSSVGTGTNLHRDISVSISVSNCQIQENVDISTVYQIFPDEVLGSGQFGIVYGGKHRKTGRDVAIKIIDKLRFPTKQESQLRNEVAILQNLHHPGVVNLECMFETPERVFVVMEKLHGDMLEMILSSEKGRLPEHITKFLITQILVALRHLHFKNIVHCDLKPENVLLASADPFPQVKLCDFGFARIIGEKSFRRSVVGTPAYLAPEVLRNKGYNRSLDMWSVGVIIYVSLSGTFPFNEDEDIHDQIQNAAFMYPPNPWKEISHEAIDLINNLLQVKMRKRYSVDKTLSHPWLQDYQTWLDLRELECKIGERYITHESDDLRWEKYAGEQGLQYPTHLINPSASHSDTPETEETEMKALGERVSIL
Experiment: Inhibition of PMA-induced endogenous PKD1 activation in LNCaP cells (Western blot)
Type: cell-based
Parameters: endogenous in cells; host or cells: LNCaP
Conditions: 45 min pretreatment, 100 nM PMA 20 min, densitometry of Western blots, mean ± S.E.M., read-out: Cellular IC50, inhibition of PKD1 autophosphorylation at S916
Method: LNCaP cells were maintained as described previously. Western blot analysis was carried out as previously reported. Briefly, cells were lysed in lysis buffer containing 200 mM Tris-HCl, pH 7.4, 100 μM 4-(2-aminoethyl) benzenesulfonyl fluoride, 1 mM EGTA, and 1% Triton X-100. Protein concentration was determined using the BCA Protein Concentration Assay reagent kit (Pierce) and then equal amounts of protein were subjected to SDS-PAGE followed by electrotransfer to nitrocellulose membranes. […]
Measurement label: pIC50
Please treat pIC50 as minus the base-10 logarithm of the molar concentration.

Sample records with pIC50:
COc1ccc2sc3c(c2c1)SCCCNC3=O = 4.73
O=C1NCCSc2c1sc1ccc(O)cc21 = 5.66
O=C1NCCSc2c1sc1ccc(O)c(I)c21 = 5.07
O=C1NCCCSc2c1sc1ccc(O)cc21 = 5.59

Could you now consider this next compound?
**Q:** What pIC50 value was documented for this compound, COc1ccc2sc3c(c2c1)SCCNC3=O ?
**A:** 5.51

----------
Biological target: UniProt Q15139
Assay: In vitro radiometric PKD kinase assay
Format: biochemical
Set-up: purchased Biomol International
Details: radiometric kinase assay, mean ± S.E.M.
Measurement label: IC50 (nM)
Numbers only here, please. The scale is nM.

Sample records with IC50:
COc1ccc2sc3c(c2c1)SCCNC3=O [kb-NB165-09] = 82.5
O=C1NCCSc2c1sc1ccc(O)c(I)c21 [kb-NB165-31] = 114

**Q:** What IC50 value was documented for this molecule, COc1ccc2sc3c(c2c1)SCCCNC3=O [kb-NB184-02] ?
**A:** 193
